system: TAC-induced heart failure in mice; test: Transverse aortic constriction (TAC) model of heart failure; assay type: in vivo, mouse; settings: third study, minipump
assayReadout: left ventricular ejection fraction (EF) throughout the six-week study

querySmiles | dataValue
COc1ccc(CN2CCN(CCOC(=O)c3cccnc3)CC2)c(OC)c1OC | preserved
COc1ccc(CN2CCN(CCO)CC2)c(OC)c1OC | preserved
